# test.system: T1, Recombinant human FcγRI/CD64, extracellular domain, glycosylated (human, UniProt P12314 16-292)
# T1 construct: extracellular domain; also called FcγRIa; FcγRIa-FITC
# T1 sequence (P12314 16-292): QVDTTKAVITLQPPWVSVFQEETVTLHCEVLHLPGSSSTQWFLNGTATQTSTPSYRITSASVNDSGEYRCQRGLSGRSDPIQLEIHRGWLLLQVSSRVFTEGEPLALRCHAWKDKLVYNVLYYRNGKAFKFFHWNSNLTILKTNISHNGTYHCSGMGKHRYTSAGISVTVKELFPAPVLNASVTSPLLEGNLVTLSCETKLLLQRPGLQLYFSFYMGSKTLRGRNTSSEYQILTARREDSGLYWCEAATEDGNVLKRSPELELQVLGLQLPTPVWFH
# assay.overview: flow cytometry of spheroplasts displaying the Fc clone, labelled with FcγRIa-FITC; the value is repeated on D00019 and D00020
Kindly state FACS mean value for each of the entries shown.
Answer with a bare number; do not write a unit.

// field: FACS mean value; key: Fc143 (P238S, E382V, S426V, M428L, E430H), aglycosylated Fc mutant (other) DKTHTCPPCPAPELLGGSSVFLFPPKPKDTLMISRTPEVTCVVVDVSHEDPEVKFNWYVDGVEVHNAKTKPREEQYNSTYRVVSVLTVLHQDWLNGKEYKCKVSNKALPAPIEKTISKAKGQPREPQVYTLPPSRDELTKNQVSLTCLVKGFYPSDIAVEWVSNGQPENNYKTTPPVLDSDGSFFLYSKLTVDKSRWQQGNVFSCVVLHHALHNHYTQKSLSLSPGK ; value = 211

FACS mean value measured on Fc100 (other) Fc chain: DKTHTCPPCPAPELLGGPSVFLFPPKPKDTLMISRTPEVTCVVVDVSHEDPEVKFNWYVDGVEVHNAKTKPREEQYNSTYRVVSVLTVLHQDWLNGKEYKCKVSNKALPAPIEKTISKAKGQPREPQVYTLPPSRDELTKNQVSLTCLVKGFYPSDIAVTWMSEGQPENNYKTTPPVLDSDGSFFLYSKLTVDKSRWQQGNVFSCSVMHEALHNHYTQKSLSLSPGK = 138

Value of FACS mean value reported for the binder Fc152 (H224R, E382V, S426T, M428S, E430P), aglycosylated Fc mutant (other) DKTRTCPPCPAPELLGGPSVFLFPPKPKDTLMISRTPEVTCVVVDVSHEDPEVKFNWYVDGVEVHNAKTKPREEQYNSTYRVVSVLTVLHQDWLNGKEYKCKVSNKALPAPIEKTISKAKGQPREPQVYTLPPSRDELTKNQVSLTCLVKGFYPSDIAVEWVSNGQPENNYKTTPPVLDSDGSFFLYSKLTVDKSRWQQGNVFSCTVSHPALHNHYTQKSLSLSPGK is 173

The measurements presented in this section are drawn from patent US20090136936A1.
